Assay: MTT cytotoxicity assay, A549
Format: cell-based, human
Conditions: human, A549 alveolar basal epithelial adenocarcinoma cells, 5 days incubation
quantity kind: IC50 at 5 days

Item under review: CC(=O)C1=CC[C@H]2C3=CC(=O)[C@H]4C[C@@H](O)CC[C@]4(C)[C@@]3(O)CC[C@]12C [Compound 3, Aethiopinolone C] . Reported IC50 at 5 days? 70 µg/mL

Then what about the molecule CC(=O)C1=CC[C@H]2C3=CC(=O)[C@H]4C[C@H](O)CC[C@]4(C)[C@@]3(O)CC[C@]12C [Compound 4, Aethiopinolone D] ? 52 µg/mL

Try CC(=O)C1=CC[C@H]2C3=CC(=O)[C@H]4CC(=O)CC[C@]4(C)[C@@]3(O)CC[C@]12C [Compound 5, Aethiopinolone E] next. 43 µg/mL

One more molecule: CC(=O)[C@H]1[C@H](O)C[C@H]2C3=CC(=O)[C@H]4C[C@H](O)CC[C@]4(C)[C@@]3(O)CC[C@@]21C [Compound 2, Aethiopinolone B] > 70 µg/mL

---

Give IC50 at 5 days for every item shown.
Assay: MTT cytotoxicity assay, L929
Type: cell-based, mouse
Details: mouse, L929 fibroblast cells, 5 days incubation
I only need the number, in µg/mL, no unit after it.

Any idea what its IC50 at 5 days is? The compound is CC(=O)[C@H]1[C@H](O)C[C@H]2C3=CC(=O)[C@H]4C[C@H](O)CC[C@]4(C)[C@@]3(O)CC[C@@]21C 45

Item: CC(=O)C1C(O)CC2C3=CC(=O)C4CC(O)CCC4(C)C3(O)CCC21C (centres unmarked) 28

Now try CC(=O)C1=CC[C@H]2C3=CC(=O)[C@H]4C[C@H](O)CC[C@]4(C)[C@@]3(O)CC[C@]12C . 45

Next entry: CC(=O)C1=CC[C@H]2C3=CC(=O)[C@H]4C[C@@H](O)CC[C@]4(C)[C@@]3(O)CC[C@]12C 40

Repeat for the following compound: CC(=O)C1=CC[C@H]2C3=CC(=O)[C@H]4CC(=O)CC[C@]4(C)[C@@]3(O)CC[C@]12C 40

---

Assay: MTT cytotoxicity assay, SKOV-3
Format: cell-based, human
Settings: human, SKOV-3 cells, 5 days incubation
Provide the recorded IC50 at 5 days for the entries that follow.
Hi! Could you send only the number? It should be in µg/mL, unit omitted.

GET /values?readout=IC50 at 5 days&item= CC(=O)C1C(O)CC2C3=CC(=O)C4CC(O)CCC4(C)C3(O)CCC21C (centres unmarked) 26

Cool, now CC(=O)C1=CC[C@H]2C3=CC(=O)[C@H]4C[C@H](O)CC[C@]4(C)[C@@]3(O)CC[C@]12C 36

# repeat for CC(=O)C1=CC[C@H]2C3=CC(=O)[C@H]4C[C@@H](O)CC[C@]4(C)[C@@]3(O)CC[C@]12C 38

Moving on to CC(=O)C1=CC[C@H]2C3=CC(=O)[C@H]4CC(=O)CC[C@]4(C)[C@@]3(O)CC[C@]12C 34
